# tested target: HIV protease (Human immunodeficiency virus type 1 group M subtype B, UniProt P04585)
# Construct: plasmid containing HIV protease under the control of the T7 promotor
# protocol text: Cell Free HIV Protease Inhibition Assay (gag polyprotein)
# experimental setup: HIV gag polyprotein substrate, 30° C.
recorded endpoint: IC50 (µM)
Answers are plain numbers, in µM.

Below, each entry is followed by its recorded IC50 result.
1. CC[C@H](C)[C@H](NC(=O)OCc1ccccc1)C(=O)N[C@@H](Cc1ccccc1)[C@H](O)[C@H](O)CN1C[C@H]2CCCC[C@H]2C[C@H]1C(=O)NC(C)(C)C	2.93
2. CC(C)[C@H](NC(=O)OCc1ccccc1)C(=O)N[C@@H](Cc1ccccc1)[C@H](O)[C@H](O)CN1C[C@H]2CCCC[C@H]2C[C@H]1C(=O)NC(C)(C)C (relative stereo)	2.11

Please find the next compound below.
Fill in: IC50 of "CC(C)(C)NC(=O)[C@@H]1C[C@@H]2CCCC[C@@H]2CN1C[C@H](O)[C@@H](O)[C@H](Cc1ccccc1)NC(=O)[C@H](CC(N)=O)NC(=O)c1ccc2ccccc2n1" is ___ 2.84

Data origin: patent US5491149A
